Study Target: Alpha-2A adrenergic receptor (Sus scrofa, UniProt P18871)
Sequence (P18871 16-465): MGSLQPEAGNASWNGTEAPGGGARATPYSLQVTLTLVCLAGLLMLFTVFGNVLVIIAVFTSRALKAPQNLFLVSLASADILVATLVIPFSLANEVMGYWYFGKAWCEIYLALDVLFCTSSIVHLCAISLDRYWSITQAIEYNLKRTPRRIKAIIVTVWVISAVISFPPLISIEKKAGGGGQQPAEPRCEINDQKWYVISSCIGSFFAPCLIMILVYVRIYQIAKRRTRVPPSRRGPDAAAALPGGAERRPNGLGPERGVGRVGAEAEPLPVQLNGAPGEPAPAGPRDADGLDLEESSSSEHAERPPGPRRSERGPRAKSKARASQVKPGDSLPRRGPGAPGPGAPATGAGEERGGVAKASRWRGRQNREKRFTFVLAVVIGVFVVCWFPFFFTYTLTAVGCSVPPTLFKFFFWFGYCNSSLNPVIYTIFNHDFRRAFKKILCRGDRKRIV
Measurement Name: Ki (nM)
One number for each entry, in nM.

The molecule listed as C=Cc1sc2ccc(Cl)c3c2c1CN(C)CC3 [SKF 104856] has a reported Ki of 54.5
